# Tested on: chicken anti-avian infectious bronchitis virus (IBV) sera
# Format: binding
Where no end group is shown, it is not given here.
Each item that follows carries a reported response ratio R/T.

Substance	response ratio R/T
(LRIPVTAEVGSSYFK)8K4K2K-βA (also: octameric MAP: 8 copies on K4K2K lysine core with C-terminal βAla) [GA6, control polypeptide, WSSV VP28 52-66]	1/3
(KHWPQIAQFA)8K4K2K-βA (also: octameric MAP: 8 copies on K4K2K lysine core with C-terminal βAla) [GA155]	2/3
(RINWVTGGIA)8K4K2K-βA (also: octameric MAP: 8 copies on K4K2K lysine core with C-terminal βAla) [GA179]	3/3

----------
# Test system: cat anti-feline coronavirus sera
# Type: binding
Where no end group is shown, it is not given here.
Each item that follows carries a reported response ratio R/T.
Parameter measured: response ratio R/T

>>> print(df.to_string())
                                  substance  measured
0  (KKTDEAQPLP)8K4K2K-βA (also: octameric MAP: 8 copies on K4K2K lysine core with C-terminal βAla) [GA170]       0/8
1  (DHIGTRNPNN)8K4K2K-βA (also: octameric MAP on K4K2K lysine core with C-terminal βAla) [GA151]       1/8
2  (RNPNNNAATV)8K4K2K-βA (also: octameric MAP: 8 copies on K4K2K lysine core with C-terminal βAla) [GA152]       0/8
3  (RINWVTGGIA)8K4K2K-βA (also: octameric MAP: 8 copies on K4K2K lysine core with C-terminal βAla) [GA179]       7/8
4  (KHWPQIAQFA)8K4K2K-βA (also: octameric MAP: 8 copies on K4K2K lysine core with C-terminal βAla) [GA155]       8/8
5  (RYLRHGKLRP)8K4K2K-βA (also: octameric MAP: 8 copies on K4K2K lysine core with C-terminal βAla) [GA102]       8/8

----------
Each item that follows carries a reported response ratio R/T.
# Test system: chicken anti-avian infectious bronchitis virus (IBV) sera
# Assay type: binding
Where no end group is shown, it is not given here.
Parameter measured: response ratio R/T

>>> print(df.to_string())
                                  substance  measured
0  (QRQKKQPTVT)8K4K2K-βA (also: octameric MAP: 8 copies on K4K2K lysine core with C-terminal βAla) [GA172]       3/3
1  (GANKEGIVWV)8K4K2K-βA (also: octameric MAP on K4K2K lysine core with C-terminal βAla) [GA147]       1/3
2  (RYLRHGKLRP)8K4K2K-βA (also: octameric MAP: 8 copies on K4K2K lysine core with C-terminal βAla) [GA102]       2/3

----------
Each item that follows carries a reported response ratio R/T.
# Tested on: cat anti-feline coronavirus sera
# Format: binding
Where no end group is shown, it is not given here.

Substance	response ratio R/T
(GTSWFITQRN)8K4K2K-βA (also: octameric MAP: 8 copies on K4K2K lysine core with C-terminal βAla) [GA129]	5/6
(QRQKKQPTVT)8K4K2K-βA (also: octameric MAP: 8 copies on K4K2K lysine core with C-terminal βAla) [GA172]	8/8
(YNYKYRYLRH)8K4K2K-βA (also: octameric MAP: 8 copies on K4K2K lysine core with C-terminal βAla) [GA101]	8/8
(FFGMSRIGME)8K4K2K-βA (also: octameric MAP on K4K2K lysine core with C-terminal βAla) [GA158]	8/8
(RVDFCGKGYH)8K4K2K-βA (also: octameric MAP: 8 copies on K4K2K lysine core with C-terminal βAla) [GA117]	6/8
NYKYRYLRHGKLRPFERDISNVPFS [GA91]	6/8
(LRIPVTAEVGSSYFK)8K4K2K-βA (also: octameric MAP: 8 copies on K4K2K lysine core with C-terminal βAla) [GA6, control polypeptide, WSSV VP28 52-66]	8/8

----------
# Tested on: chicken anti-avian infectious bronchitis virus (IBV) sera
# Assay type: binding
Where no end group is shown, it is not given here.
Parameter measured: response ratio R/T

>>> print(df.to_string())
                                  substance  parameter_measured  measured
0  (RVDFCGKGYH)8K4K2K-βA (also: octameric MAP: 8 copies on K4K2K lysine core with C-terminal βAla) [GA117]  response ratio R/T       1/3
1  (YNYKYRYLRH)8K4K2K-βA (also: octameric MAP: 8 copies on K4K2K lysine core with C-terminal βAla) [GA101]  response ratio R/T       3/3
2  (FFGMSRIGME)8K4K2K-βA (also: octameric MAP on K4K2K lysine core with C-terminal βAla) [GA158]  response ratio R/T       3/3
